- measured.on: GlcNAc(b1-3)Gal(b1-4)GlcNAc(b1-3)Gal(b1-4)GlcNAc(b1-3)Gal(b1-4)GlcNAc(b1-2)Man(a1-3)[GlcNAc(b1-3)Gal(b1-4)GlcNAc(b1-3)Gal(b1-4)GlcNAc(b1-3)Gal(b1-4)GlcNAc(b1-2)Man(a1-6)]Man(b1-4)GlcNAc(b1-4)GlcNAc
- protocol.details: glycan array binding signal (z-score within array); higher = stronger binding
- condition.notes: glycan notation: IUPAC condensed, linker removed
The entries come from a sample that favours the strongest signals as a whole.
measurement.type: glycan array binding signal (z-score)
One number for each entry.

Completed entries (count: 3):
1) Epa11 (Candida glabrata) (protein) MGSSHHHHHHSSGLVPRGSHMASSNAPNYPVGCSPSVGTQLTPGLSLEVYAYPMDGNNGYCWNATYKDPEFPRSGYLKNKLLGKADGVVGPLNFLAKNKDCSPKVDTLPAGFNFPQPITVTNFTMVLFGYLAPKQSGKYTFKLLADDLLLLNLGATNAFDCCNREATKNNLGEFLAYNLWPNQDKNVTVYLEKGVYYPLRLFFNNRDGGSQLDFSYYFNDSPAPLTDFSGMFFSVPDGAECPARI :: -0.16
2) Pwp4 (Candida glabrata) (protein) MGSSHHHHHHSSGLVPRGSHMASVGNPITVSNVCSFPKNWHRTAGFRALTARLGIGIQSDSYKELLNYPGTFQLTTQQSSTTKPNFQISGLVGNIYGLTIVPSYLLVELTGYFVPPVSGEYTFSLEGSDDAAIIFIANPSTFKCGHVEDWPTAYDNDVTVTESIHATRTIYMIEGVAYPIRIAYYNGLSLGKLQASFTDPEGVKRVDWNGYIWRYDSCDTCSYV :: 1.16
3) AFCNVH (Aspergillus fumigatus) (protein) MSLRGFHTTCDTIVLKDKHILSSRCKRPDGTYSFSEIDLNDCLGNNNGKFVWGGESFVDSASQVNLALEGGEGRPMLHAQLNDWHGSVQSASVNLGECIQNEAGGLEYMHC :: 4.24

// next entry
Please look up its glycan array binding signal (z-score): Protein L(B1-B4) (Finegoldia magna), Q51912 (protein) KEETPETPETDSEEEVTIKANLIFANGSTQTAEFKGTFEKATSEAYAYADTLKKDNGEYTVDVADKGYTLNIKFAGKEKTPEEPKEEVTIKANLIYADGKTQTAEFKGTFEEATAEAYRYADALKKDNGEYTVDVADKGYTLNIKFAGKEKTPEEPKEEVTIKANLIYADGKTQTAEFKGTFEEATAEAYRYADLLAKENGKYTVDVADKGYTLNIKFAGKEKTPEEPKEEVTIKANLIYADGKTQTAEFKGTFAEATAEAYRYADLLAKENGKYTADLEDGGYTINIRFAG
1.06
